Quick reference for IC50 among some compounds
target: NaV1.8 (Homo sapiens, UniProt Q9Y5Y9); assay: Activity against NaV 1.8 channel (Table 3), optical membrane potential / electrophysiology assays; type: cell-based
readout: IC50

compound=CC(C)(C)c1ccc(C(=O)Nc2cccc(S(N)(=O)=O)c2)c(Oc2ccc(Cl)cc2Cl)c1 reported_value="< 2 µM"
compound=NS(=O)(=O)c1cccc(NC(=O)c2ccc3ccccc3c2)c1 reported_value="> 10 µM"
compound=CC(C)(C)c1ccc(C(=O)Nc2cccc(S(N)(=O)=O)c2)c(Oc2ccc(C(N)=O)cc2)c1 reported_value="> 10 µM"
compound=COc1cccc(Oc2ccccc2C(=O)Nc2cccc(S(N)(=O)=O)c2)c1 reported_value="2 to 10 µM"
compound=Cc1ncccc1Oc1cc(C(F)(F)F)ccc1C(=O)Nc1cccc(S(N)(=O)=O)c1 reported_value="< 2 µM"
compound=CCOc1ccc(C(=O)Nc2cccc(S(N)(=O)=O)c2)c(OCC)c1 reported_value="> 10 µM"
compound=NS(=O)(=O)c1cccc(NC(=O)c2cccc(C(=O)c3ccccc3)c2)c1 reported_value="> 10 µM"
compound="CC(C)(C)c1ccc(C(=O)Nc2cccc(S(N)(=O)=O)c2)c([S+]([O-])c2ccccc2)c1 (centres unmarked)" reported_value="2 to 10 µM"

====

molecular target: NaV1.8 (Homo sapiens, UniProt Q9Y5Y9); test: Activity against NaV 1.8 channel (Table 3), optical membrane potential / electrophysiology assays; format: cell-based
pIC50: −log10 of the molar value.
readout: pIC50

compound="COc1ccc(Oc2cc(C(C)(C)C)ccc2C(=O)Nc2cccc(S(N)(=O)=O)c2)cc1 [Compound 88]" readout=pIC50 reported_value="> 5.70"
compound="CCOc1ccc(C(=O)Nc2cccc(S(N)(=O)=O)c2)cc1 [Compound 64]" readout=pIC50 reported_value="< 5.00"
compound="CC(C)Cc1ccc(C(=O)Nc2cccc(S(N)(=O)=O)c2)cc1 [Compound 80]" readout=pIC50 reported_value="> 5.70"
compound="NS(=O)(=O)c1cccc(NC(=O)c2ccc(SC(F)(F)F)cc2)c1 [Compound 60]" readout=pIC50 reported_value="< 5.00"
compound="NS(=O)(=O)c1cccc(NC(=O)c2ccccc2Oc2cccc(N3CCOCC3)c2)c1 [Compound 89]" readout=pIC50 reported_value="< 5.00"
compound="CC(C)(C)c1ccc(C(=O)Nc2cccc(S(N)(=O)=O)c2)c(Oc2ccc(F)cc2Cl)c1 [Compound 101]" readout=pIC50 reported_value="> 5.70"
compound="NS(=O)(=O)c1cccc(NC(=O)c2ccccc2Oc2ccc(F)cc2)c1 [Compound 95]" readout=pIC50 reported_value="> 5.70"
compound="COc1ccc(C(=O)Nc2cccc(S(N)(=O)=O)c2)cc1OC [Compound 9]" readout=pIC50 reported_value="< 5.00"
compound="CC(=O)Nc1ccc(C(=O)Nc2cccc(S(N)(=O)=O)c2)cc1 [Compound 54]" readout=pIC50 reported_value="< 5.00"
compound="NS(=O)(=O)c1cccc(NC(=O)c2ccccc2C(F)(F)F)c1 [Compound 47]" readout=pIC50 reported_value="< 5.00"
compound="CC(C)(C)c1ccc(C(=O)Nc2cccc(S(N)(=O)=O)c2)c(Oc2ccc(C(F)(F)F)nc2)c1 [Compound 115]" readout=pIC50 reported_value="> 5.70"
compound="CCc1ccc(C(=O)Nc2cccc(S(N)(=O)=O)c2)cc1 [Compound 28]" readout=pIC50 reported_value="< 5.00"
compound="NS(=O)(=O)c1cccc(NC(=O)c2ccccc2-c2cccnc2)c1 [Compound 11]" readout=pIC50 reported_value="< 5.00"
compound="NS(=O)(=O)c1cccc(NC(=O)c2ccc(OC(F)(F)F)cc2)c1 [Compound 34]" readout=pIC50 reported_value="< 5.00"
compound="NS(=O)(=O)c1cccc(NC(=O)c2ccccc2OC(F)(F)F)c1 [Compound 30]" readout=pIC50 reported_value="< 5.00"
compound="CNS(=O)(=O)c1cccc(NC(=O)c2ccc(C(C)(C)C)cc2)c1 [Compound 14]" readout=pIC50 reported_value="5.00 to 5.70"
compound="CC(C)(C)c1ccc(C(=O)Nc2cccc(S(N)(=O)=O)c2)c(Oc2ccccc2)c1 [Compound 1]" readout=pIC50 reported_value="> 5.70"
compound="CC(C)(C)c1ccc(C(=O)Nc2cccc(S(N)(=O)=O)c2)c(Oc2ccccc2N2CCOCC2)c1 [Compound 98]" readout=pIC50 reported_value="> 5.70"
compound="Cc1ccccc1C(=O)Nc1cccc(S(N)(=O)=O)c1 [Compound 69]" readout=pIC50 reported_value="< 5.00"
compound="CC(=O)c1ccccc1C(=O)Nc1cccc(S(N)(=O)=O)c1 [Compound 122]" readout=pIC50 reported_value="< 5.00"
compound="NS(=O)(=O)c1cccc(NC(=O)c2ccccc2Nc2cccc(F)c2)c1 [Compound 6]" readout=pIC50 reported_value="< 5.00"
compound="CC(C)(C)c1ccc(C(=O)Nc2cccc(S(N)(=O)=O)c2)c(Oc2ccccc2Cl)c1 [Compound 48]" readout=pIC50 reported_value="> 5.70"

====

molecular target: NaV1.8 (Homo sapiens, UniProt Q9Y5Y9); assay: Activity against NaV 1.8 channel (Table 3), optical membrane potential / electrophysiology assays; type: cell-based
pIC50: −log10 of the molar value.
readout: pIC50

compound="NS(=O)(=O)c1cccc(NC(=O)c2ccccc2-c2ccccc2)c1 [Compound 94]" readout=pIC50 reported_value="< 5.00"
compound="Cc1ccc(-c2ccccc2C(=O)Nc2cccc(S(N)(=O)=O)c2)cc1 [Compound 75]" readout=pIC50 reported_value="5.00 to 5.70"
compound="COc1ccc(C(=O)Nc2cccc(S(N)(=O)=O)c2)cc1C(F)(F)F [Compound 42]" readout=pIC50 reported_value="< 5.00"
compound="NS(=O)(=O)c1cccc(NC(=O)c2ccc(Br)cc2)c1 [Compound 13]" readout=pIC50 reported_value="< 5.00"
compound="NS(=O)(=O)c1cccc(NC(=O)c2ccccc2NCc2ccccc2)c1 [Compound 68]" readout=pIC50 reported_value="< 5.00"

====

target: NaV1.8 (Homo sapiens, UniProt Q9Y5Y9); assay: Activity against NaV 1.8 channel (Table 3), optical membrane potential / electrophysiology assays; type: cell-based
readout: IC50

molecular_string=Cc1c(Cl)cc(NC(=O)c2ccc(C(C)(C)C)cc2)cc1S(N)(=O)=O reported_value="> 10 µM"
molecular_string=NS(=O)(=O)c1cccc(NC(=O)c2ccccc2N2CCOCC2)c1 reported_value="> 10 µM"
molecular_string=CC(C)(C)c1ccc(C(=O)Nc2cccc(S(N)(=O)=O)c2)c(Oc2ccc(F)cc2)c1 reported_value="< 2 µM"
molecular_string=COc1cc(Cl)ccc1C(=O)Nc1cccc(S(N)(=O)=O)c1 reported_value="> 10 µM"
molecular_string=COc1ccccc1Oc1ccccc1C(=O)Nc1cccc(S(N)(=O)=O)c1 reported_value="< 2 µM"
molecular_string=NS(=O)(=O)c1cccc(NC(=O)c2ccccc2Oc2ccccc2N2CCCCC2)c1 reported_value="< 2 µM"
molecular_string=N#Cc1ccc(C(=O)Nc2cccc(S(N)(=O)=O)c2)cc1 reported_value="> 10 µM"
molecular_string=NS(=O)(=O)c1cccc(NC(=O)c2ccccc2NC(=O)c2cccnc2)c1 reported_value="> 10 µM"
molecular_string=CC(C)(C)c1cccc(Nc2ccccc2C(=O)Nc2cccc(S(N)(=O)=O)c2)c1 reported_value="> 10 µM"
molecular_string=COC(=O)c1ccc(Oc2cc(C(C)(C)C)ccc2C(=O)Nc2cccc(S(N)(=O)=O)c2)cc1 reported_value="< 2 µM"
molecular_string=NS(=O)(=O)c1cccc(NC(=O)c2ccccc2Oc2ccccc2)c1 reported_value="2 to 10 µM"
molecular_string=NS(=O)(=O)c1cccc(NC(=O)c2ccccc2COc2ccccc2)c1 reported_value="2 to 10 µM"
